- Test system: Human immunodeficiency virus 1
- measurement_protocol: Antiviral activity against HIV1 3B
- Type: functional, organism-based
- protocol_conditions: Human immunodeficiency virus 1, 3B
pEC50: −log10 of the molar value.
observation_type: pEC50

> print(dat)
                                     smiles                  assayed.target  reported.value
1  C[C@@H]1CCO[C@H]2Cn3cc(C(=O)NCc4ccc(F)cc4F)c(=O)c(O)c3C(=O)N12  Human immunodeficiency virus 1            8.96
2  O=C(NCc1c(F)cc(F)cc1F)c1cn2c(c(O)c1=O)C(=O)N1[C@H]3CC[C@H](C3)O[C@@H]1C2  Human immunodeficiency virus 1            9.00

meta.source: ChEMBL document CHEMBL4680174
